Assay: protein stability index of a GFP-peptide fusion (yeast GPS) (PSI 1-4); higher = more stable; sorted into four equal gates, so the index is relative within each strain
Conditions: doa10∆
Measure: protein stability index
Keep it simple and answer with nothing but the number.

# input Note down protein stability index recorded for NYASVYPVVEVERGRVG [RRP43]
# output 3.48

# input Note down protein stability index recorded for HVESDKITAKTQHEEEE [IRR1]
# output 2.85

# input Note down protein stability index recorded for LVEVEDEKIEAIKKKEK [SRB7]
# output 2.57

# input Note down protein stability index recorded for NSVRNSLLLAHFFSKSC [NUT1]
# output 1.74

# input Note down protein stability index recorded for QQQQTSPPPQTHQSPPP [SNF5]
# output 2.88

# input Note down protein stability index recorded for NLATKGMVKLNEYPVAD [REC8]
# output 2.85

# input Note down protein stability index recorded for SLWRRTVYSLSQQAGLD [YDL116W/NUP84]
# output 1.9

# input Note down protein stability index recorded for GNSFHLMRELLKMMKLI [PRP8]
# output 2.78

# input Note down protein stability index recorded for FKYRKARLEPGTAIGAI [RPO31]
# output 2.73

# input Note down protein stability index recorded for DELMVIYISNLVRSIIA [RPN8]
# output 2.44

# input Note down protein stability index recorded for NNYPNVELTYSLNNSDS [BRR2]
# output 2.99

# input Note down protein stability index recorded for GAVSLNPSITRLEEESS [RRP4]
# output 3

# input Note down protein stability index recorded for KLVLAARIIAAIPNPED [RPS0A]
# output 1.71

# input Note down protein stability index recorded for LIIDDPSKGQSLSKISQ [RPP1]
# output 2.77

# input Note down protein stability index recorded for ASSAAAGAAGAAAGGDA [RPP2B]
# output 2.87

// data source = the supplement of paper PMC9732359
